- Tested on: Wnt5a (protein binding on small-molecule microarray)
- testName: Wnt5a binders on small-molecule microarray, primary screen, biophysical, 635/667 nm fluorescence (AID 1142);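 further: fluorescence read at 667 nm with signal to noise per printed feature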
- measurementParameters: 635 nm fluorescence, higher = more signal
quantity: composite z-score
// return a plain number; no unit text

Problem: Report composite z-score for O=C1C2C=CC(C(O)c3ccc(F)cc3)N(Nc3ccccc3)C2C(=O)N1c1ccccc1 (centres undefined) please.
Solution: 0.137

Problem: I have this compound here, CCC(CC)C(O)C1C=CC2C(=O)N(c3ccccc3)C(=O)C2N1Nc1ccc(C#N)cc1 (centres undefined) , and I need its recorded composite z-score.
Solution: 0.658

Problem: Fill blank: measured composite z-score of the compound CC(C)OC(=O)CC(=O)CC(O)c1ccc(C#N)cc1 (centres undefined) is ____.
Solution: -0.0818

Problem: Look up composite z-score: COC(=O)[C@@]1(Cc2ccccc2N=[N+]=[N-])COC(c2ccc(OCCCO)cc2)=N1
Solution: 0.193

Values compiled from PubChem BioAssay.
